System: Plasmodium falciparum
Experiment: Anti-malarial activity against Plasmodium falciparum Dd2
Assay type: functional, organism-based
Measured property: IC50 (µM)

For orientation, consider the following solved cases.
[
  {
    "Compound": "CC(C)(C)OC(=O)NC(Cc1ccc(C(F)(F)F)cc1)C(=O)Nc1ccc(NC(=O)/C=C/c2ccc(-c3ccc([N+](=O)[O-])cc3)o2)cc1C(=O)c1ccccc1 (stereo unspecified)",
    "Assayed target": "Plasmodium falciparum",
    "Test value": 3.2
  },
  {
    "Compound": "O=C(/C=C/c1ccc(-c2ccc([N+](=O)[O-])cc2)o1)Nc1ccc(NC(=O)CCc2ccc([N+](=O)[O-])cc2)c(C(=O)c2ccccc2)c1",
    "Assayed target": "Plasmodium falciparum",
    "Test value": 1.4
  },
  {
    "Compound": "O=C(/C=C/c1ccc(-c2ccc([N+](=O)[O-])cc2)o1)Nc1ccc(NC(=O)CCc2ccccc2C(F)(F)F)c(C(=O)c2ccccc2)c1",
    "Assayed target": "Plasmodium falciparum",
    "Test value": 1.1
  },
  {
    "Compound": "O=C(/C=C/c1ccc(-c2ccc([N+](=O)[O-])cc2)o1)Nc1ccc(NC(=O)CCc2cccc(C(F)(F)F)c2)c(C(=O)c2ccccc2)c1",
    "Assayed target": "Plasmodium falciparum",
    "Test value": 0.63
  }
]

(P) N[C@H](Cc1ccccc1)C(=O)Nc1ccc(NC(=O)/C=C/c2ccc(-c3ccc([N+](=O)[O-])cc3)o2)cc1C(=O)c1ccccc1
(Q) O=C(/C=C/c1ccc(-c2ccc([N+](=O)[O-])cc2)o1)Nc1ccc(NC(=O)CCc2ccc(C(F)(F)F)cc2)c(C(=O)c2ccccc2)c1
QUERY: Compare P and Q by numeric IC50 and name the larger one. Returns: label corresponding to the selected item.
RESULT: P
(P: 1.2 µM, Q: 0.061 µM)
